# assay-procedure: Toxicity in ip dosed mouse
# Assay type: organism-based
# protocol-conditions: in vivo
observable: LD50 (mg/kg)
One number for each entry, in mg/kg.

Input line: Please look up its LD50: CN1[C@@H]2CC[C@@H](C[C@H](OC(=O)C(CO)c3ccccc3)C2)N1C (stereo in doubt; 1)
Output line: 150
